experimental_target: JAK1 (Homo sapiens)
Construct: 5 μl of catalytic domain recombinant Kinase enzyme+Tyr peptide substrate (Invitrogen, Calif.)
Sequence (P23458 875-1153 limits assumed): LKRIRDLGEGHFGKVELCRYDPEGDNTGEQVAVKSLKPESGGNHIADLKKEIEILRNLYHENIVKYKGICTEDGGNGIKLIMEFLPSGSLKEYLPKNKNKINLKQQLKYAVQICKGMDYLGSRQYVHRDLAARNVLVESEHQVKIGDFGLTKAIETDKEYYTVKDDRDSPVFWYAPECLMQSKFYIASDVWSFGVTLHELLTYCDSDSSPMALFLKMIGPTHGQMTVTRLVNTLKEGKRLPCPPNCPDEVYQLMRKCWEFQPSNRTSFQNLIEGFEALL
method: Z'-LYTE kinase assay, JAK1 tyrosine phosphorylation activity
test_parameters: read-out: JAK 1 IC50
pIC50: −log10 of the molar value.
value_type: pIC50

Known pIC50 results, listed for orientation:
CCNC(=O)Nc1cccc(Nc2ncc(C(N)=O)c(NC3CCCC3)n2)c1 [Example 36] = 7.00 to 8.00
CC(=O)Nc1cc(Nc2ncc(C(N)=O)c(N[C@H](C)c3ccccc3)n2)ccc1Cl [Example 108] = 6.00 to 7.00
CC(=O)Nc1cccc(Nc2cc(NCc3ccc(F)cc3)c(C(N)=O)cn2)c1 [Example 332] = < 6.00
CNC(=O)Nc1cc(Nc2ncc(C(N)=O)c(NCC3CC3)n2)ccc1Cl [Example 178] = 6.00 to 7.00
CNC(=O)c1cnc(Nc2cccc(NC(C)=O)c2)cc1NCc1ccccc1 [Example 339] = < 6.00

Inquiry: Look up pIC50 of NC(=O)c1cnc(Nc2ccc(Cl)c(NC(=O)N3CCCC3)c2)nc1NCc1cccc(Cl)c1 [Example 173] and report it.
Reply text: < 6.00

Inquiry: Look up pIC50 of COCC(=O)Nc1cccc(Nc2ncc(C(N)=O)c(NCc3ccc(F)cc3)n2)c1 [Example 104] and report it.
Reply text: 6.00 to 7.00

Inquiry: Look up pIC50 of COc1ccc(Nc2ncc(C(N)=O)c(NCc3ccccc3)n2)cc1NC(=O)N1CCCC1 [Example 163] and report it.
Reply text: 7.00 to 8.00

Inquiry: Look up pIC50 of CC(=O)Nc1cccc(Nc2ncc(C(N)=O)c(NCC3CCCN(C(C)=O)C3)n2)c1 (centres unmarked) [Example 119] and report it.
Reply text: 7.00 to 8.00

Inquiry: Look up pIC50 of COC(=O)Nc1cc(Nc2ncc(C(N)=O)c(NCC(F)(F)F)n2)ccc1Cl [Example 18] and report it.
Reply text: < 6.00

Inquiry: Look up pIC50 of CC(=O)Nc1cccc(Nc2ncc(C(N)=O)c(NCC#N)n2)c1 [Example 74] and report it.
Reply text: 7.00 to 8.00

###

experimental_target: TYK2 (Homo sapiens)
Construct: 5 μl of catalytic domain recombinant Kinase enzyme+Tyr peptide substrate (Invitrogen, Calif.)
Sequence (P29597 897-1176 limits assumed): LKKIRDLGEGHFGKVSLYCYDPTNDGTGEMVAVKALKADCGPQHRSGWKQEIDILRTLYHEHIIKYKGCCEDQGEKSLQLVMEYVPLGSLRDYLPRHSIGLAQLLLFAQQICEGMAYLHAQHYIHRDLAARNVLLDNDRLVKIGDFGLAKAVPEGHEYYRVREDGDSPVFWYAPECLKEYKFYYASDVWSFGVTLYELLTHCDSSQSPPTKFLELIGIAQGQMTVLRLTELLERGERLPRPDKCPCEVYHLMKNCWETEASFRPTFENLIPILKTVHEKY
method: Z'-LYTE kinase assay, TYK2 tyrosine phosphorylation activity
value_type: IC50

NC(=O)c1cnc(Nc2cc(NC(=O)N3CCCC3)ccc2F)nc1NCc1ccccc1 = 100 to 1000 nM
CC(=O)Nc1cccc(Nc2ncc(C(N)=O)c(NCc3ccccc3F)n2)c1 = 1 to 10 nM
CNC(=O)c1cnc(Nc2cccc(NC(=O)COC)c2)nc1NC1Cc2ccccc2C1 = 10 to 100 nM
CC(=O)Nc1cccc(Nc2ncc(C(N)=O)c(NCc3cc(F)ccc3F)n2)c1 = 10 to 100 nM
C[C@@H](Nc1nc(Nc2cccc(NC(=O)N3CCCCC3)c2)ncc1C(N)=O)c1ccccc1 = 10 to 100 nM
CC(=O)Nc1cccc(Nc2ncc(C(=O)O)c(NCC3CCNC3)n2)c1 (centres unmarked) = 100 to 1000 nM

Inquiry: Look up IC50 of COCC(=O)N(C)c1cccc(Nc2ncc(C(N)=O)c(NCc3ccccc3)n2)c1 and report it.
Reply text: 10 to 100 nM

Inquiry: Look up IC50 of CC(=O)N(C)c1cccc(Nc2ncc(C(N)=O)c(NC(C)C)n2)c1 and report it.
Reply text: 10 to 100 nM

###

Examples of molecules with documented IC50 follow.
experimental_target: TYK2 (Homo sapiens)
Construct: 5 μl of catalytic domain recombinant Kinase enzyme+Tyr peptide substrate (Invitrogen, Calif.); purchased Invitrogen
Sequence (P29597 897-1176 limits assumed): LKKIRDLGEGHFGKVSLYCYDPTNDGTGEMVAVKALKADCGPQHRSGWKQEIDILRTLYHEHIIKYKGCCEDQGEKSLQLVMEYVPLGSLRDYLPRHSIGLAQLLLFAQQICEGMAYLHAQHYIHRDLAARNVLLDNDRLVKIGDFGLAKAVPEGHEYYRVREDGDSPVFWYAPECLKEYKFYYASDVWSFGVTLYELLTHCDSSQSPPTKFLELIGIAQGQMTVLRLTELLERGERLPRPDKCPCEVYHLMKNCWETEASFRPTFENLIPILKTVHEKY
method: Z'-LYTE kinase assay, TYK2 tyrosine phosphorylation activity
Assay type: biochemical

Known IC50 results, listed for orientation:
NC(=O)c1cnc(Nc2cccc(NC(=O)N3CCOCC3)c2)nc1NCc1cccc(F)c1 [Example 259] = 1 to 10 nM
COCC(=O)Nc1cccc(Nc2ncc(C(N)=O)c(N[C@H](C)c3ccccc3)n2)c1 [Example 47] = 10 to 100 nM
CC(=O)Nc1cccc(Nc2ncc(C(N)=O)c(NCC3CCNCC3)n2)c1 [Example 190] = 10 to 100 nM
CC(=O)Nc1cccc(Nc2ncc(C(N)=O)c(NC[C@@H](O)CO)n2)c1 [Example 83] = 10 to 100 nM
CNC(=O)c1cnc(Nc2cccc(NC(C)=O)c2)nc1NCc1ccccc1 [Example 112] = > 1000 nM

Inquiry: Provide IC50, system TYK2 (Homo sapiens), entry COCC(=O)N(c1cccc(Nc2ncc(C(N)=O)c(N[C@H](C)c3ccccc3)n2)c1)C1CC1 [Example 162]
Reply text: 10 to 100 nM

Inquiry: Provide IC50, system TYK2 (Homo sapiens), entry CC(=O)Nc1cccc(Nc2ncc(C(N)=O)c(NCC3CCCN(C(C)=O)C3)n2)c1 (stereo not drawn) [Example 119]
Reply text: 10 to 100 nM

Inquiry: Provide IC50, system TYK2 (Homo sapiens), entry CNC(=O)Nc1cc(Nc2ncc(C(N)=O)c(NCc3ccccc3)n2)ccc1C [Example 157]
Reply text: 1 to 10 nM

Inquiry: Provide IC50, system TYK2 (Homo sapiens), entry CC(=O)Nc1cccc(Nc2cc(NCCc3ccccc3)c(C(N)=O)cn2)c1 [Example 338]
Reply text: 100 to 1000 nM

Inquiry: Provide IC50, system TYK2 (Homo sapiens), entry CC(=O)Nc1cccc(Nc2ncc(C(N)=O)c(NC[C@H](C)c3ccccc3)n2)c1 [Example 81]
Reply text: 10 to 100 nM

Inquiry: Provide IC50, system TYK2 (Homo sapiens), entry CC(=O)N(C)c1cccc(Nc2ncc(C(N)=O)c(NC3CCCC3)n2)c1 [Example 78]
Reply text: 10 to 100 nM

Inquiry: Provide IC50, system TYK2 (Homo sapiens), entry CC(=O)Nc1cccc(Nc2ncc(C(N)=O)c(NCCN3CCOCC3)n2)c1 [Example 80]
Reply text: 10 to 100 nM

Inquiry: Provide IC50, system TYK2 (Homo sapiens), entry CCOC(=O)Nc1cccc(Nc2ncc(C(N)=O)c(NC3CCCC3)n2)c1 [Example 24]
Reply text: 10 to 100 nM

Inquiry: Provide IC50, system TYK2 (Homo sapiens), entry COCC(=O)Nc1cc(Nc2ncc(C(N)=O)c(N[C@H](C)c3ccccc3)n2)ccc1Cl [Example 109]
Reply text: 100 to 1000 nM

###

experimental_target: JAK3 (Homo sapiens, UniProt P52333)
Construct: 5 μl of catalytic domain recombinant Kinase enzyme+Tyr peptide substrate (Invitrogen, Calif.)
Sequence (P52333 822-1111 limits assumed): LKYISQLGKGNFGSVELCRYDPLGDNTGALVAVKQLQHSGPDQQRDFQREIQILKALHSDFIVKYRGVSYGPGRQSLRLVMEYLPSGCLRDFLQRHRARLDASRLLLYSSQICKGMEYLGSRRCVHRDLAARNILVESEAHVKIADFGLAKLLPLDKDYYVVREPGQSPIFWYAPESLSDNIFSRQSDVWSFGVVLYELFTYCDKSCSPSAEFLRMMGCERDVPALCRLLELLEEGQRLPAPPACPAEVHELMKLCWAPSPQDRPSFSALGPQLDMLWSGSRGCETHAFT
method: Z'-LYTE kinase assay, JAK3 tyrosine phosphorylation activity
Examples of molecules with documented IC50 follow.

Known IC50 results, listed for orientation:
COCC(=O)N(C)c1cccc(Nc2ncc(C(N)=O)c(N[C@H](C)c3ccccc3)n2)c1 [Example 86] = 1 to 10 nM
CCC(=O)Nc1cccc(Nc2ncc(C(N)=O)c(NC3CCCC3)n2)c1 [Example 21] = 1 to 10 nM
NC(=O)c1cnc(Nc2ccc(F)c(NC(=O)N3CCC3)c2)cc1N[C@H](CO)c1ccccc1 [Example 311] = 1 to 10 nM
CC(=O)Nc1cccc(Nc2ncc(C(N)=O)c(NCc3c(F)ccc(F)c3F)n2)c1 [Example 59] = 1 to 10 nM
CC(=O)Nc1cccc(Nc2ncc(C(N)=O)c(N[C@H]3CCc4ccccc43)n2)c1 [Example 96] = 10 to 100 nM

Inquiry: Look up IC50 of NC(=O)c1cnc(Nc2ccc(Cl)c(NC(=O)N3CCOCC3)c2)nc1NCc1ccccc1 [Example 182] and report it.
Reply text: 1 to 10 nM

Inquiry: Look up IC50 of C[C@@H]1CCCN1C(=O)Nc1cccc(Nc2ncc(C(N)=O)c(N[C@H](C)c3ccccc3)n2)c1 [Example 148] and report it.
Reply text: 1 to 10 nM

Inquiry: Look up IC50 of NC(=O)c1cnc(Nc2cccc(NC(=O)N3CCCC3)c2)nc1NCc1cccc(F)c1 [Example 179] and report it.
Reply text: 1 to 10 nM
